Where do these numbers come from? They come from paper PMC6451005.

observation_type: pIC50
Quick note: pIC50 values are minus log10 of concentrations in mol/L.

Report measured pIC50 on Her4 Wild Type (Homo sapiens); entry: C=CC(=O)N1CCC(Oc2cc3c(Nc4ccc(Cl)c(Cl)c4F)ncnc3cc2OC)CC1 [Poziotinib]
Sequence (Q15303 26-1308): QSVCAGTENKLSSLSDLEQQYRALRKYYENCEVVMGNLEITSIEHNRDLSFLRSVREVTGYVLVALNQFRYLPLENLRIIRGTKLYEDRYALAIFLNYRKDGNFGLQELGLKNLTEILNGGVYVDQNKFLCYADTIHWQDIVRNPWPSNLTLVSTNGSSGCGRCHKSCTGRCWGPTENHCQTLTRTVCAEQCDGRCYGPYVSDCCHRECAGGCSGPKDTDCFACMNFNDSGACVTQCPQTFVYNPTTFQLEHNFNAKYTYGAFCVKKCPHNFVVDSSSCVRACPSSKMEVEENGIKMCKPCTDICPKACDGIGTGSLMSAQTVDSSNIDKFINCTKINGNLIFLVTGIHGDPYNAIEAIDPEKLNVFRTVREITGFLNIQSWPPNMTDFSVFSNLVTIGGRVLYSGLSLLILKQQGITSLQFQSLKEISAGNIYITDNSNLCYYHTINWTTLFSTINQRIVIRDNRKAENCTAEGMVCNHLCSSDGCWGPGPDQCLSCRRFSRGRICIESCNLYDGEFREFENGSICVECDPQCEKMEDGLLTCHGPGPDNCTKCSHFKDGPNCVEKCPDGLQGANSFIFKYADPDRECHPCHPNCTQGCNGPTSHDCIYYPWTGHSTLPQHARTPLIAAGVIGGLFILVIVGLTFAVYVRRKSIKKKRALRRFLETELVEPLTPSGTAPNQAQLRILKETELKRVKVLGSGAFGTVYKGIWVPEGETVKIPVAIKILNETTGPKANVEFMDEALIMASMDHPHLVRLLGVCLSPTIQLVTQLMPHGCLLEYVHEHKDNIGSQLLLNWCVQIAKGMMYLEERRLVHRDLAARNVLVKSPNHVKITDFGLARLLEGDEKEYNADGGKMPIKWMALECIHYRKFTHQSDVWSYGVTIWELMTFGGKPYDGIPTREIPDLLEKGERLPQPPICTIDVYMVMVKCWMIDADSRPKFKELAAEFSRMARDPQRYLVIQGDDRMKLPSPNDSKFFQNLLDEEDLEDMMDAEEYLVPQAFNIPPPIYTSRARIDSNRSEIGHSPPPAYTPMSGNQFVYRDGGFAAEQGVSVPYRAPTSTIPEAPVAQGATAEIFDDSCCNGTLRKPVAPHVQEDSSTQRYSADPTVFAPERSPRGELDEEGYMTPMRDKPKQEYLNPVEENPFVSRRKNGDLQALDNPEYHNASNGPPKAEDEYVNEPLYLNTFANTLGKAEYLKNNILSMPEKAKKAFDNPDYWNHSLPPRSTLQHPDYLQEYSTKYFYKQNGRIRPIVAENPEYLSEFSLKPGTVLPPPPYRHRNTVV
9.74

----------
assay_system: EGFR L858R (Homo sapiens, UniProt P00533, L858R)
Sequence (P00533 25-1210 L858R): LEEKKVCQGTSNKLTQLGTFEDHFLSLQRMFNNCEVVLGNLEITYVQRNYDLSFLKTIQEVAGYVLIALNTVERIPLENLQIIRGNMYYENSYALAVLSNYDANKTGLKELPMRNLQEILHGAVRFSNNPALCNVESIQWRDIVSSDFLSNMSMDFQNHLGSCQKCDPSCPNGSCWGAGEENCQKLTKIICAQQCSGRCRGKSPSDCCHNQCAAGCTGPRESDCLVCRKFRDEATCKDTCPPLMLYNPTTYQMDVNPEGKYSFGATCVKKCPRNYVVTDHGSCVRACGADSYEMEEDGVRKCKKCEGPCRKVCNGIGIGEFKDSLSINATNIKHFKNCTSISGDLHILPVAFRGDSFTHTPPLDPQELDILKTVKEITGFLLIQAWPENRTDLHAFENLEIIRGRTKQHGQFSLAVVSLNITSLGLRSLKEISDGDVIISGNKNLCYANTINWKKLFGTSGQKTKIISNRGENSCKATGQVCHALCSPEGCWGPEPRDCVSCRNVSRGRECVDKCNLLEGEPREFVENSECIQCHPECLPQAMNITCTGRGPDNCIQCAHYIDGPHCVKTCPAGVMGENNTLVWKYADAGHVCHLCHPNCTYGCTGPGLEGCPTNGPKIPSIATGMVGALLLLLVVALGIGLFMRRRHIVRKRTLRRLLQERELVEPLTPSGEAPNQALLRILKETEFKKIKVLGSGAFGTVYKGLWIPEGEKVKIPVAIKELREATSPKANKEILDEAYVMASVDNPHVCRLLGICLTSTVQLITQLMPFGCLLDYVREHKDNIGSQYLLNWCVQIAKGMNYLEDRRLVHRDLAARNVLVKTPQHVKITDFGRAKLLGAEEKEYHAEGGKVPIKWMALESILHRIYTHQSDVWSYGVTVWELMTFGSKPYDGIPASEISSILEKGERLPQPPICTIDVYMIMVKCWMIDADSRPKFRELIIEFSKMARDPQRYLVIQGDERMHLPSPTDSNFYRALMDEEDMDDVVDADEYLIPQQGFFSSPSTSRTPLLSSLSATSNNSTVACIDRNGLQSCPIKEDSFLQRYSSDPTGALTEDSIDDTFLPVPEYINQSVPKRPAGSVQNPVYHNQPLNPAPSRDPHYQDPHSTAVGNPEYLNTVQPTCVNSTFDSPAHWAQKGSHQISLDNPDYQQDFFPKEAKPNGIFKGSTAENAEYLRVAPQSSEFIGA
measurement_notes: In vitro kinase assay
observation_type: IC50
Give the figure together with its unit, number first.

# return recorded IC50 for input "C=CC(=O)N1CCC(Oc2cc3c(Nc4ccc(Cl)c(Cl)c4F)ncnc3cc2O)CC1"
4.7 pM

----------
Test system: HCC827 cells
measurement_notes: Cell growth inhibition assay (MTT)
Assay type: cell-based
study_conditions: Homo sapiens; HCC827, EGFR (Del E746_A750); MTT, 72 h; mean ± s.d. (n = 3); read-out: IC50 cell viability
Give measured IC50 for each item. Keep answers brief.
State the answer as a number, implicitly in nM.

Report IC50, nothing else, for this molecule: "C=CC(=O)N1CCC(Oc2cc3c(Nc4ccc(Cl)c(Cl)c4F)ncnc3cc2OC)CC1"
1.72

Identify measured IC50 associated with "C=CC(=O)N1CCC(Oc2cc3c(Nc4ccc(Cl)c(Cl)c4F)ncnc3cc2O)CC1"
4.22

----------
assay_system: EGFR L858R/T790M (Homo sapiens, UniProt P00533, L858R/T790M)
Sequence (P00533 25-1210 T790M/L858R): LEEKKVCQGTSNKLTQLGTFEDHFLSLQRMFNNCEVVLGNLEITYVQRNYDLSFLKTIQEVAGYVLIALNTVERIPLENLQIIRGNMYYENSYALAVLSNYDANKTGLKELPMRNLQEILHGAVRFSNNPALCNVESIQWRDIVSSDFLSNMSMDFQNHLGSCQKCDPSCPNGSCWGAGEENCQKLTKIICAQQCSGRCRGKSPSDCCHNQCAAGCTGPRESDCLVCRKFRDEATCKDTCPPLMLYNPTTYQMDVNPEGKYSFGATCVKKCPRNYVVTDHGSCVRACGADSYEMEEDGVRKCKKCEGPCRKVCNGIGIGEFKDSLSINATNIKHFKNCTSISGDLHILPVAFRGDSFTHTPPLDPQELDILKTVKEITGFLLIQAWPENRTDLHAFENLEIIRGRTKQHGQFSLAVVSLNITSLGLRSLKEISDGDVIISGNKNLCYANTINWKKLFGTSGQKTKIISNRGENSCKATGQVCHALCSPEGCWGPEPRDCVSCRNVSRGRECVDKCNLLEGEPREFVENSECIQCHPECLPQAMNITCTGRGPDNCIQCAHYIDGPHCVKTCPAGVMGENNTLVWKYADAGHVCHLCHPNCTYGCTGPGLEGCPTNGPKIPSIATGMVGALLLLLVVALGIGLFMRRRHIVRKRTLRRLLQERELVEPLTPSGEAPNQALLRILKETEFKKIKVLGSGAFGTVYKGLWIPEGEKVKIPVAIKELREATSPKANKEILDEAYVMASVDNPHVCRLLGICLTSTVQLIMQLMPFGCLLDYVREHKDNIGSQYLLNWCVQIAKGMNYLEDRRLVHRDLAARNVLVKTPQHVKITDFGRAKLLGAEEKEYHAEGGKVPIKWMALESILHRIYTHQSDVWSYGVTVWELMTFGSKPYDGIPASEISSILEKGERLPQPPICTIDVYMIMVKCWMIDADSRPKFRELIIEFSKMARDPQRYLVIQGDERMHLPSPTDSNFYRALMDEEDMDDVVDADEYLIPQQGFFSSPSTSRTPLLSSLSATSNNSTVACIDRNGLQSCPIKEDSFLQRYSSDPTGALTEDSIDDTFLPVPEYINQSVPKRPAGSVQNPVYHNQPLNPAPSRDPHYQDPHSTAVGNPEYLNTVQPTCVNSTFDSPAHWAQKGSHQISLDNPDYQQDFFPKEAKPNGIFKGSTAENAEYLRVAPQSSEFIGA
measurement_notes: In vitro kinase assay
observation_type: pIC50
# pIC50 is unitless: minus log10 of the molar concentration; print number only

Note pIC50 for the compound shown: C=CC(=O)N1CCC(Oc2cc3c(Nc4ccc(Cl)c(Cl)c4F)ncnc3cc2O)CC1 [PCC0208027]
9.03
